target: IDH1 R132C (Homo sapiens, UniProt O75874, R132C); construct: 6xHis; assay: Biochemical assay for IDH inhibition (NADPH fluorescence), mutant IDH1 R132C; settings: 25 nM IDH1-R132C, 1 hour pre-incubation, in triplet
Sequence (O75874 whole entry R132C): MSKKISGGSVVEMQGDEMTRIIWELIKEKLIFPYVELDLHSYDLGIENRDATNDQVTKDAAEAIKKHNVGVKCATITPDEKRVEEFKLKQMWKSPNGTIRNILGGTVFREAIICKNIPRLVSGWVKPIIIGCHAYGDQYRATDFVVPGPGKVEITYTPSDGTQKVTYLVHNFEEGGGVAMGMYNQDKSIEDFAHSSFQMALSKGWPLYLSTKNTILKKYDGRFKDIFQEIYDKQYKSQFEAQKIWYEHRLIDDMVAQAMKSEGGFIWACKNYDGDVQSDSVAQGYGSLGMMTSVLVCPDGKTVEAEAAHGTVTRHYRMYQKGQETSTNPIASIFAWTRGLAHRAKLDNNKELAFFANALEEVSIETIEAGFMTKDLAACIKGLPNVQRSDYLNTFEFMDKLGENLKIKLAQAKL
pIC50: −log10 of the molar value.
This section presents molecules with their documented pIC50 values.

# MOLECULE, ASSAY_TARGET, pIC50
data = [
    ("C[C@H](Nc1nccc2c1CN(CCO)C2=O)c1cc(F)c(-c2ccnc(C(C)(C)C)c2)cc1F [Compound 159]", "IDH1 R132C (Homo sapiens, UniProt O75874, R132C)", "6.30 to 7.00"),
    ("CCN1Cc2c(ccnc2N[C@@H](C)c2ccc(-c3ccc4c(ccn4C)c3)c(F)c2)C1=O [Compound 72]", "IDH1 R132C (Homo sapiens, UniProt O75874, R132C)", "6.00 to 6.30"),
    ("CCN1Cc2c(ccnc2N[C@@H](C)c2ccc(-c3ccc(C)cn3)c(F)c2)C1=O [Compound 82]", "IDH1 R132C (Homo sapiens, UniProt O75874, R132C)", "< 6.00"),
    ("CCN1Cc2c(ccnc2N[C@@H](C)c2cnc(-c3cc(C(C)(C)C)ccn3)c(F)c2)C1=O [Compound 44]", "IDH1 R132C (Homo sapiens, UniProt O75874, R132C)", "< 6.00"),
    ("CCN1Cc2c(ccnc2N[C@@H](C)c2ccc(-c3ccn(C)n3)c(F)c2)C1=O [Compound 83]", "IDH1 R132C (Homo sapiens, UniProt O75874, R132C)", "< 6.00"),
    ("CCN1Cc2c(ccnc2N[C@@H](C)c2ccc(-c3ccnc(C4CCC4)c3)c(F)c2)C1=O [Compound 77]", "IDH1 R132C (Homo sapiens, UniProt O75874, R132C)", "6.30 to 7.00"),
    ("CCN1Cc2c(ccnc2N[C@@H](C)c2ccc(-c3cc(C)nc(C)c3)c(F)c2)C1=O [Compound 76]", "IDH1 R132C (Homo sapiens, UniProt O75874, R132C)", "< 6.00"),
    ("CCN1Cc2c(ccnc2N[C@@H](C)c2cc(F)c(-c3cc(C(C)(C)F)c(C(F)(F)F)cn3)cc2F)C1=O [Compound 148]", "IDH1 R132C (Homo sapiens, UniProt O75874, R132C)", "> 7.00"),
]

Qu. Checklist item: pIC50 tested on IDH1 R132C (Homo sapiens, UniProt O75874, R132C), entry CCN1Cc2c(ccnc2N[C@@H](C)c2ncc(-c3cccc(C)c3F)cn2)C1=O [Compound 49] , value?
Ans. < 6.00

Qu. Checklist item: pIC50 tested on IDH1 R132C (Homo sapiens, UniProt O75874, R132C), entry CCN1Cc2c(ccnc2N[C@@H](C)c2ccc(Oc3cnn(C)c3)c(F)c2)C1=O [Compound 4] , value?
Ans. < 6.00

Qu. Checklist item: pIC50 tested on IDH1 R132C (Homo sapiens, UniProt O75874, R132C), entry CCN1Cc2c(ccnc2N[C@@H](C)c2ccc(Oc3ccc4c(cnn4C)c3)c(F)c2)C1=O [Compound 1] , value?
Ans. 6.30 to 7.00
